- Target system: T1, human PD-1 (construct not stated) (human, UniProt Q15116 25-167, limits assumed)
- T1 construct: also called PD-1 analyte
- T1 sequence (Q15116 25-167 limits assumed): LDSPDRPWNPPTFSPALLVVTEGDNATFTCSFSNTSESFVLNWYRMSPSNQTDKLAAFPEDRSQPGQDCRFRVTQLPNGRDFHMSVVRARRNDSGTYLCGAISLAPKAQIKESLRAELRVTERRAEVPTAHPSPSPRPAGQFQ
- Assay notes: Biacore, antibody captured, PD-1 analyte
kon reference
Return type: number; implicit unit M⁻¹ s⁻¹.

Binder	kon / M⁻¹ s⁻¹
14A6 murine anti-PD-1 antibody (antibody, V domains shown, Purified hybridoma antibody; also called 14A6-mIgG1) VH: DVQLQESGPGLVKPSQSLSLTCTVTGYSITSDYAWNWIRQFPGNQLEWMAYISYSGYTSYNPSLKSRISITRDTSRNQFFLQLNSVTTEDTATYYCARSLDYDYGTMDYWGQGTSVTVSS VL: QIVLSQSPAILSASPGEKVTMTCRANSSVSSMHWYQQKPGSSPEPWIYAISNLAFGVPARFSGSGSGTSYSLTISRVEAEDAATYFCQQWNSRPPTFGGGTKLEIKR	1.51e+06
7A4 murine anti-PD-1 antibody (antibody, V domains shown, Purified hybridoma antibody; also called 7A4-mIgG1) VH: QIHLVQSGPELKKPGETVKISCKASGYTFTNFGMNWVKQAPGKGLKWMGWISGYTREPTYAADFKGRFAISLETSASTAYLQINDLKNEDMATYFCARDVFDYWGQGTTLTVSS VL: DIVLTQSPASLAVSLGQRATISCRASESVDNYGYSFMNWFQQKPGQPPKLLIYRASNLESGIPARFSGSGSRTNFTLTINPVEADDVATYFCQQSNADPTFGGGTNLEIKR	1.96e+06
5A8 murine anti-PD-1 antibody (antibody, V domains shown, Purified hybridoma antibody; also called 5A8-mIgG1) VH: QVQLQQSGDELVRPGTSVKMSCKAAGYTFTNNWIGWVKQRPGHGLEWIGDFYPGGGYTNYNEKFKGKATLTADTSSSTAYMQLSSLTSEDSAIYYCARGYGTNYWYFDVWGAGTTVTVSS VL: NIVMTQTPKILFISAGDRVTITCKASQSVSNDVAWYQQKPGQSPKLLIYYAFTRYIGVPDRFTGSGYGTDFTFTISTVQAEDLAVYFCQQDYSSPYTFGGGTKLEIKR	1.29e+06

### Prompt Look up kon: 22A5 murine anti-PD-1 antibody (antibody, V domains shown, Purified hybridoma antibody; also called 22A5-mIgG1) VH: EVKLVESGGGLVKPGGSLKLSCSASGFSFSYYDMSWVRQTPEKGLEWVATISGGGRNTYFIDSVKGRFTISRDNVKNNLYLLMSSLRSEDTALYYCASPYEGAVDFWGQGTSVTVSS VL: DIVMTQSHKVMSTSVGDRVSITCKASQDVDNAVAWYQQNPGQSPKLLIKWASTRHHGVPDRFTGSGSGTDFTLTISTVQSEDLADFFCQQYSTFPYTFGGGTKLEIKR
### Response 1.49e+06

### Prompt Look up kon: 10D1 murine anti-PD-1 antibody (antibody, V domains shown, Purified hybridoma antibody; also called 10D1-mIgG1) VH: EVKLVESGGGLVKPGGSLKLSCAASGFTFSSYGMSWLRQTPEKRLEWVATMSGGGRDIYYPDSMKGRFTISRDNAKNNLYLQMSSLRSEDTALYYCARQYYDDWFAYWGQGTLVTVSA VL: DIVLTQTPATLSVTPGDSVSLSCRASQSISNNLHWYQQKSHESPRLLIKYASQSISGIPSRFSGSGSGTDFTLNINSVETEDFGMYFCQQSNSWPLTFGAGTKLELKR
### Response 840000
